The values you see were collected from PubChem BioAssay.

- assay_info: differential killing of epithelial or mesenchymal cells, primary screen, imaging, PC-3E GFP, TEM4-18 mCherry, co-culture (AID 1345086);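 note: normalised mesenchymal count divided by normalised epithelial count so high means epithelial killing; cells exposed to compound for 72 h before imaging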
- experimental_conditions: imaging cell counts, at 1 µM, actives lie on both sides
endpoint_name: red/green cell ratio (normalised)

[
  {
    "compound": "CC[C@@]1(O)C[C@H](O)c2c(cc3c(c2O)C(=O)c2c(O)ccc(O)c2C3=O)[C@H]1C(=O)OC",
    "value_observed": 0.85
  },
  {
    "compound": "CO[C@H]1[C@H](O)[C@@H](O[C@H]2CC[C@]3(C=O)C4CC[C@]5(C)[C@@H](C6=CC(=O)OC6)CC[C@]5(O)C4CC[C@@H]3C2)O[C@@H](C)[C@@H]1O (some centres undefined)",
    "value_observed": 0.18
  },
  {
    "compound": "CC1(C)C(C=C(Cl)Cl)C1C(=O)OC(C#N)c1cccc(Oc2ccccc2)c1 (centres undefined)",
    "value_observed": 0.82
  },
  {
    "compound": "COC(=O)C(c1ccccc1)C1CCCCN1 (centres undefined)",
    "value_observed": 0.97
  },
  {
    "compound": "CC(=O)OCC1=C(C(=O)O)N2C(=O)[C@@H](N)C2SC1 (some centres undefined)",
    "value_observed": 1.18
  },
  {
    "compound": "C[C@@H]([C@H](O)c1ccccc1)N(C)C",
    "value_observed": 0.91
  },
  {
    "compound": "CC[n+]1c(-c2ccccc2)c2cc(N)ccc2c2ccc(N)cc21",
    "value_observed": 2.8
  },
  {
    "compound": "CN1C[C@H](C(=O)N[C@]2(C)O[C@@]3(O)C4CCCN4C(=O)[C@H](Cc4ccccc4)N3C2=O)C=C2c3cccc4[nH]cc(c34)C[C@H]21 (some centres undefined)",
    "value_observed": 0.93
  },
  {
    "compound": "CC(C)c1cc2c(c(O)c1O)[C@@]1(C(=O)O)CCCC(C)(C)C1CC2 (some centres undefined)",
    "value_observed": 1.17
  }
]

* * *

- assay_info: sensitizers of A549 cells to miR-34 induction, primary screen, imaging, A549 dox-inducible miR-34, nuclei and caspase counts (AID 1347080)
- experimental_conditions: A549 miR-34 inducible, Hoechst nuclei count, 48 h; measured here: relative caspase fold change +Dox/-Dox

[
  {
    "compound": "N[C@]1(C(=O)O)CC[C@@H](C(=O)O)C1 (racemic)",
    "fold change": 0.73
  },
  {
    "compound": "COC1=CC(=O)OC(/C=C/c2ccccc2)C1 (stereo not given)",
    "fold change": 1.16
  },
  {
    "compound": "CCCCC/C=C\\C/C=C\\C/C=C\\C/C=C\\CCCC(=O)N(C)C",
    "fold change": 1.14
  },
  {
    "compound": "CCCCCCCCCC(=O)OC[C@H](COP(=O)([O-])OCC[N+](C)(C)C)OC(=O)CCCCCCCCC",
    "fold change": 0.797
  },
  {
    "compound": "N#Cc1ccc(N2CCN(C(=O)COc3ccc4[nH]cc(CCN)c4c3)CC2)cc1",
    "fold change": 1.69
  }
]

* * *

- Tested on: Hepatitis C virus NS3 helicase
- assay_info: HCV NS3 helicase inhibitors, primary screen, biochemical, fluorescence polarization, NIH Clinical Collection (AID 743270)
- experimental_conditions: NS3 helicase binding to Cy5-dT15 DNA, stronger effect = higher value, concentration not given here
Calls of active or inactive are those of the source. No rule for the calls is given here.
endpoint_name: inhibition

[
  {
    "compound": "C[C@]12Cc3cn[nH]c3C[C@@H]1CC[C@@H]1[C@@H]2CC[C@@]2(C)[C@H]1CC[C@]2(C)O",
    "endpoint_name": "inhibition",
    "value_observed": "-1.97% (inactive)"
  },
  {
    "compound": "Clc1ccc(COC(Cn2ccnc2)c2ccc(Cl)cc2Cl)c(Cl)c1 (configuration not stated)",
    "endpoint_name": "inhibition",
    "value_observed": "6.82% (inactive)"
  },
  {
    "compound": "CC[C@@H](C(N)=O)N1CCCC1=O",
    "endpoint_name": "inhibition",
    "value_observed": "7.52% (inactive)"
  },
  {
    "compound": "NCCc1ccccn1",
    "endpoint_name": "inhibition",
    "value_observed": "-1.19% (inactive)"
  },
  {
    "compound": "CCOC(=O)C1(c2ccccc2)CCN(CCC(C#N)(c2ccccc2)c2ccccc2)CC1",
    "endpoint_name": "inhibition",
    "value_observed": "1.98% (inactive)"
  },
  {
    "compound": "O=C(O)CCCc1ccc(N(CCCl)CCCl)cc1",
    "endpoint_name": "inhibition",
    "value_observed": "-5% (inactive)"
  },
  {
    "compound": "O=C1CN=C(c2ccccc2)c2cc([N+](=O)[O-])ccc2N1",
    "endpoint_name": "inhibition",
    "value_observed": "5.94% (inactive)"
  },
  {
    "compound": "c1ccc(Cn2ccnc2)cc1",
    "endpoint_name": "inhibition",
    "value_observed": "-1.09% (inactive)"
  },
  {
    "compound": "CN1CC[C@@H](c2ccc(F)cc2)[C@H](COc2ccc3c(c2)OCO3)C1",
    "endpoint_name": "inhibition",
    "value_observed": "2.77% (inactive)"
  },
  {
    "compound": "CC[C@]1(O)CC[C@H]2[C@@H]3CCC4=CCCC[C@@H]4[C@H]3CC[C@@]21C",
    "endpoint_name": "inhibition",
    "value_observed": "-2.77% (inactive)"
  },
  {
    "compound": "CN(C)[C@@H]1C(=O)C(C(N)=O)=C(O)[C@@]2(O)C(=O)C3=C(O)c4c(O)cccc4[C@@](C)(O)[C@H]3[C@H](O)[C@@H]12",
    "endpoint_name": "inhibition",
    "value_observed": "-4.09% (inactive)"
  },
  {
    "compound": "C=CCN1CC[C@]23c4c5ccc(O)c4O[C@H]2C(=O)CC[C@@]3(O)[C@H]1C5",
    "endpoint_name": "inhibition",
    "value_observed": "-4.09% (inactive)"
  },
  {
    "compound": "C=C1C[C@@H]2[C@H](CC[C@]3(C)C(=O)CC[C@@H]23)[C@@]2(C)C=CC(=O)C=C12",
    "endpoint_name": "inhibition",
    "value_observed": "2.77% (inactive)"
  },
  {
    "compound": "CC(C)N(CCC(C(N)=O)(c1ccccc1)c1ccccn1)C(C)C (configuration not stated)",
    "endpoint_name": "inhibition",
    "value_observed": "-3.18% (inactive)"
  },
  {
    "compound": "NC(=NCc1ccc(Cl)cc1)SCCCc1cnc[nH]1",
    "endpoint_name": "inhibition",
    "value_observed": "-2.84% (inactive)"
  },
  {
    "compound": "CCC1(c2ccc(N)cc2)CCC(=O)NC1=O (configuration not stated)",
    "endpoint_name": "inhibition",
    "value_observed": "-2.27% (inactive)"
  },
  {
    "compound": "CC(C)c1cccc(C(C)C)c1O",
    "endpoint_name": "inhibition",
    "value_observed": "-1.36% (inactive)"
  },
  {
    "compound": "CN[C@@H]1C[C@@H](c2ccc(Cl)c(Cl)c2)c2ccccc21",
    "endpoint_name": "inhibition",
    "value_observed": "-3.56% (inactive)"
  },
  {
    "compound": "C[N+]1(CCC(C(N)=O)(c2ccccc2)c2ccccc2)CCCCC1",
    "endpoint_name": "inhibition",
    "value_observed": "-1.98% (inactive)"
  },
  {
    "compound": "CC(O)(CS(=O)(=O)c1ccc(F)cc1)C(=O)Nc1ccc(C#N)c(C(F)(F)F)c1 (configuration not stated)",
    "endpoint_name": "inhibition",
    "value_observed": "0.4% (inactive)"
  },
  {
    "compound": "CCCCCCCCCOc1ccc2[nH]cc(CCN)c2c1",
    "endpoint_name": "inhibition",
    "value_observed": "-8.08% (inactive)"
  },
  {
    "compound": "CN=C1CN(O)C(c2ccccc2)=c2cc(Cl)ccc2=N1",
    "endpoint_name": "inhibition",
    "value_observed": "-3.71% (inactive)"
  }
]

* * *

- assay_info: ICB984 medulloblastoma cell growth inhibition, synergistic combos for chromothripsis tumors, cisplatin or BGB combos (AID 1671451);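 note: cells exposed for 96 hours before readout; 0% = vehicle DMSO and 100% = killing by high DMSO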
- experimental_conditions: ICB984 medulloblastoma cells, drug combinations, cisplatin combo, at 0.5 µM, stronger effect = higher value
Record yes (1) whenever inhibition is at -20% or higher; record no (0) when lower.

[
  {
    "molecule": "Cc1c2ccncc2c(C)c2c1[nH]c1ccccc12",
    "category": "yes (1)"
  },
  {
    "molecule": "Cn1c(COP(=O)(NCCBr)NCCBr)cnc1[N+](=O)[O-]",
    "category": "no (0)"
  },
  {
    "molecule": "CCC1(c2ccccc2)C(=O)NC(=O)NC1=O",
    "category": "no (0)"
  },
  {
    "molecule": "COc1cc(C2c3cc4c(cc3C(O)C3COC(=O)C23)OCO4)cc(OC)c1OC (stereo not given)",
    "category": "no (0)"
  },
  {
    "molecule": "CC1(C)C(C(=O)Nc2ccc(S(=O)(=O)c3ccc(NC(=O)C4C(C)(C)C4(C)C)cc3)cc2)C1(C)C",
    "category": "no (0)"
  },
  {
    "molecule": "O=C1CCC[C@@H]2[C@H]3CCCN4CCC[C@@H](CN12)[C@@H]34",
    "category": "yes (1)"
  },
  {
    "molecule": "NC(Cc1ccc(N(CCCl)CCCl)cc1)C(=O)O (stereo not given)",
    "category": "no (0)"
  },
  {
    "molecule": "O=C(O)CCCc1ccc(N(CCCl)CCCl)cc1",
    "category": "no (0)"
  },
  {
    "molecule": "Cn1c(CCCC(=O)O)nc2cc(N(CCCl)CCCl)ccc21",
    "category": "no (0)"
  },
  {
    "molecule": "O=c1[nH]c(=O)n(C2OC(CO)C(O)C2O)cc1F (stereo not given)",
    "category": "no (0)"
  }
]
